# measured_on: TLR8 (Homo sapiens)
# Construct: Human peripheral blood mononuclear cells (PBMCs) consist of lymphocytes, monocytes and dendritic cells that express TLR7, TLR8 and TLR9; endogenous in cells
# Sequence (Q9NR97 27-1041): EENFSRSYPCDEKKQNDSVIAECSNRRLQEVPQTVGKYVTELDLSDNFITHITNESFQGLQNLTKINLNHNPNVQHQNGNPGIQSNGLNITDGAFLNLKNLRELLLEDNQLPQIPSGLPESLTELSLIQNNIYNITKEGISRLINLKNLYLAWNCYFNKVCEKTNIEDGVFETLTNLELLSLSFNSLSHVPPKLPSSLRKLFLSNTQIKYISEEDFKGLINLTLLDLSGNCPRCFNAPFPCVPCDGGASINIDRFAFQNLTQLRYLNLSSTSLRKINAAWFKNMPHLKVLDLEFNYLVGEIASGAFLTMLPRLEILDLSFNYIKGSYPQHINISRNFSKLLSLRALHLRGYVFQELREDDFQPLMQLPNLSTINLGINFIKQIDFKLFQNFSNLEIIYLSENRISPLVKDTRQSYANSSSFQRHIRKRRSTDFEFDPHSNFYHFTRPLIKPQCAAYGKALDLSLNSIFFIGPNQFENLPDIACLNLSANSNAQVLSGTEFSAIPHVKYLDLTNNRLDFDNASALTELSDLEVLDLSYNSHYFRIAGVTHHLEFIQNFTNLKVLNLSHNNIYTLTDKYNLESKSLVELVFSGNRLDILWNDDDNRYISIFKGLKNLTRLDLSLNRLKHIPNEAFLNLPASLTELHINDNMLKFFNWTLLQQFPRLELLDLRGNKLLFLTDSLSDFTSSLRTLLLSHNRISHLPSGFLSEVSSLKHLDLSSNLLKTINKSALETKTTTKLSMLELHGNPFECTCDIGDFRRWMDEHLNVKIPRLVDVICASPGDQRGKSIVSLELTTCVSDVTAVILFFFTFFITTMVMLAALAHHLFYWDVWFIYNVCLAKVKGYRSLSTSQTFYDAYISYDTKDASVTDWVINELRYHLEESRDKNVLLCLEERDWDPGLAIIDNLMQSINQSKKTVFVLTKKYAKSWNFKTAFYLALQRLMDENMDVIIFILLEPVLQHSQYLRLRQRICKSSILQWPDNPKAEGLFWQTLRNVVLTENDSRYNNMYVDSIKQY
# protocol_text: TLR8 human PBMC cell-based assay (antagonist, Compound A stimulated cytokine release)
# test_conditions: human PBMCs; TLR8 agonist Compound A 800 nM, 6 hours; cytokines (TNFa and IL 12p40) in supernatant; read-out: TLR-8 EC50
pEC50: −log10 of the molar value.
Mark 0 for pEC50 values under 8, and 1 for everything at or above.

Solved entries:
Cc1cc(-c2[nH]c3cc(C(=O)N4CCNCC4)sc3c2C(C)C)cn2nnnc12 :: 1
CC(C)c1c(-c2cc(C(F)(F)F)c3ncnn3c2)[nH]c2cc(C(=O)N3CCNCC3)sc12 :: 1
Cc1cc(-c2[nH]c3cc(C(=O)N4CCN[C@H](C(F)(F)F)C4)sc3c2C(C)C)cn2ncnc12 :: 0
Cc1cc(-c2[nH]c3cc(-c4nc(C5CCNCC5)no4)sc3c2C(C)C)cn2ncnc12 :: 1
Cc1cc(-c2[nH]c3cc(-c4cnc5c(c4)CCNC5)sc3c2C(C)C)cn2ncnc12 :: 1
Cc1cc(-c2[nH]c3cc(C(=O)N(C)[C@H]4CCNCC4(F)F)sc3c2C(C)C)cn2ncnc12 :: 0
Cc1cc(-c2[nH]c3cc(C(=O)N4CCNCC4)sc3c2C(C)C)cn2ncnc12 :: 1
Cc1cc(-c2[nH]c3cc(C4CC4C(=O)N4CCN(CCO)CC4)sc3c2C(C)C)cn2ncnc12 (stereo not shown) :: 0

We next turn to a different molecule, shown below.
Qu. Could you please find out whether Cc1cc(-c2[nH]c3cc(C4CCC(N5CC6(COC6)C5)CC4)sc3c2C(C)C)cn2ncnc12 (stereo not shown) has pEC50 that meets 8 or exceeds it?
Ans. 1
